Overview of recorded supernatant dilution at which binding is still detectable for various binders
assayedSystem: T1, human 4-1BB (human, UniProt Q07011 24-255)
T1 construct: whole, on cells; also called CD137; 4-1BB reporter cells
T1 sequence (Q07011 24-255): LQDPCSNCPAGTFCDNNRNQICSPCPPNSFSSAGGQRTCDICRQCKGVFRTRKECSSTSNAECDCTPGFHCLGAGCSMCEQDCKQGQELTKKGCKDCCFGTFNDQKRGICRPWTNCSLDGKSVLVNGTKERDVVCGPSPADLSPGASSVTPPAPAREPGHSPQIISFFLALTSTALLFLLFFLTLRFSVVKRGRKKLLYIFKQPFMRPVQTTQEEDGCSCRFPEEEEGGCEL
protocol: flow cytometry; dilution series of HEK293T supernatant on Jurkat TPR cells expressing human 4-1BB

{"columns": ["binder", "reportedMeasurement"],
 "data": [
  ["s4-1BBL-TriXVIII (ligand, HEK293T supernatant; The entry may include the CD5 leader; also called 54-1BBL-TriXVIII; human s4-1BBL-TriXVIII) GSGSNWSHPQFEKGGSGGHHHHHHGGSGGGVRLWATRQAMLGQVHEVPEGWLIFVAEQEELYVRVQNGFRKVQLEARTPLPRGTDNEGSLDLRQGMFAQLVAQNVLLIDGPLSWYSDPGLAGVSLTGGLSYKEDTKELVVAKAGVYYVFFQLELRRVVAGEGSGSVSLALHLQPLRSAAGAAALALTVDLPPASSEARNSAFGFQGRLLHLSAGQRLGVHLHTEARARHAWQLTQGATVLGLFRVTPEIPAGLPSPRSE", "4096 supernatant dilution (1:x)"],
  ["s4-1BBLsh-TriXVIII (ligand, HEK293T supernatant, used without purification; The entry may include the CD5 leader; also called 54-1BBLsh-TriXVIII; s4-1BBL-short (sh) minimal polypeptide) GSGSNWSHPQFEKGGSGGHHHHHHGGSGGGVRLWATRQAMLGQVHEVPEGWLIFVAEQEELYVRVQNGFRKVQLEARTPLPRGTDNEGSGMFAQLVAQNVLLIDGPLSWYSDPGLAGVSLTGGLSYKEDTKELVVAKAGVYYVFFQLELRRVVAGEGSGSVSLALHLQPLRSAAGAAALALTVDLPPASSEARNSAFGFQGRLLHLSAGQRLGVHLHTEARARHAWQLTQGATVLGLFRVTP", "2080 supernatant dilution (1:x)"]
]}

Ask: Consider the binder shown here: s4-1BBL (ligand, HEK293T supernatant; also called soluble 4-1BBL) GSGSNWSHPQFEKGGSGGHHHHHHGGSGGGSLDLRQGMFAQLVAQNVLLIDGPLSWYSDPGLAGVSLTGGLSYKEDTKELVVAKAGVYYVFFQLELRRVVAGEGSGSVSLALHLQPLRSAAGAAALALTVDLPPASSEARNSAFGFQGRLLHLSAGQRLGVHLHTEARARHAWQLTQGATVLGLFRVTPEIPAGLPSPRSE What is its recorded supernatant dilution at which binding is still detectable?
Result: 1600 supernatant dilution (1:x)

Ask: Same thing, different binder: s4-1BBL-TNC (ligand, HEK293T supernatant; The entry may include the CD5 leader; also called comparison 3) GSGSNWSHPQFEKGGSGGHHHHHHGGSGGTRACGCAAAPDIKDLLSRLEELEGLVSSLREQGSLDLRQGMFAQLVAQNVLLIDGPLSWYSDPGLAGVSLTGGLSYKEDTKELVVAKAGVYYVFFQLELRRVVAGEGSGSVSLALHLQPLRSAAGAAALALTVDLPPASSEARNSAFGFQGRLLHLSAGQRLGVHLHTEARARHAWQLTQGATVLGLFRVTPEIPAGLPSPRSE
Result: 128 supernatant dilution (1:x)
